B1: FLOT1 (parent)
chain: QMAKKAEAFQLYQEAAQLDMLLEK

Variants of: B1
Assay: protein stability index of a GFP-peptide fusion (GPS, HEK-293T) (PSI 1-6); higher = more stable;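 note: lentivirally expressed fusions sorted by FACS into six bins by GFP to DsRed ratio, PSI derived from sequencing read proportions per bin multiplied by bin number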
Settings: c terminus: a fixed tail appended
// classify(record): look up protein stability index in ranges low class: < 2; middle class: ≥ 2 and < 3; high class: ≥ 3

[
  {
    "Variant Designation": "L11C",
    "Class": "low class"
  },
  {
    "Variant Designation": "E23S",
    "Class": "middle class"
  },
  {
    "Variant Designation": "L18D",
    "Class": "high class"
  },
  {
    "Variant Designation": "A3F",
    "Class": "low class"
  },
  {
    "Variant Designation": "A16G",
    "Class": "high class"
  },
  {
    "Variant Designation": "M20K",
    "Class": "middle class"
  },
  {
    "Variant Designation": "E23N",
    "Class": "middle class"
  },
  {
    "Variant Designation": "Q10S",
    "Class": "middle class"
  },
  {
    "Variant Designation": "M20T",
    "Class": "high class"
  },
  {
    "Variant Designation": "K24Q",
    "Class": "middle class"
  }
]

Q: Class for E23C ?
A: middle class

Q: Category lookup for the variant L18F
A: middle class

Q: Just checking, what class would you give M20F here?
A: middle class

Q: In plain terms, what class is Q17L ?
A: low class

Q: Place this variant in its band: Q10R
A: low class

Q: State the band of M20Y
A: middle class

Q: Hey, which category is K4F in, do you know?
A: low class

Q: Which of the defined bands does the recorded protein stability index of A16D sit within?
A: high class
